# target_desc: AGTR1 (Homo sapiens)
# Construct: host or cells: Pathunter CHO-K1 AGTR1 β-arrestin cell line (CHO-K1)
# Sequence (P30556 whole entry): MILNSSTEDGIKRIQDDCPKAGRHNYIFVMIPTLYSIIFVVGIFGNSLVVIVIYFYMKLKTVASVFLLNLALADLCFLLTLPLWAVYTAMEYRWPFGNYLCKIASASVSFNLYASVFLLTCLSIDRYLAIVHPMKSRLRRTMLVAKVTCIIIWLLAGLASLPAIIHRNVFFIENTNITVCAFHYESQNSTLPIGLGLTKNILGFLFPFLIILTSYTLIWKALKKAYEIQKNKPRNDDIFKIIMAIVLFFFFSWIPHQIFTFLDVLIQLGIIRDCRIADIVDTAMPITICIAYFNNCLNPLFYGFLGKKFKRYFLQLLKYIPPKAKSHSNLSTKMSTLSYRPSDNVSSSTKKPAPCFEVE
# assay_protocol: DiscoveRx β-arrestin2 recruitment assay (enzyme complementation, Pathunter CHO-K1 AGTR1 β-arrestin cell line)
# Assay type: cell-based
# stated_conditions: DiscoveRx β-arrestin2 recruitment, maximal response
Would you please tag the item met when its DiscoveRx β-arrestin2 Ymax (%) is 40% or above, and not met when it is below?

INSERT INTO measurements (query_smiles, class) VALUES
  ('CCc1nc2c(C)cc(C)nc2n1Cc1ccc(-c2cc(-c3ccc(F)cn3)ccc2-c2nn[nH]n2)cc1', 'not met'),
  ('CCc1nc2c(C)cc(C)nc2n1Cc1ccc(-c2cc(-c3cccnc3OC)ccc2-c2nn[nH]n2)cc1', 'not met'),
  ('CCc1nc2c(C)cc(C)nc2n1Cc1ccc(-c2cc(-c3cn(CC)nn3)ccc2-c2nnn[nH]2)cc1', 'met'),
  ('CCCCc1nc(Cl)c(C(=O)O)n1Cc1ccc(-c2cc(-c3cccc(C(F)F)n3)ccc2-c2nn[nH]n2)cc1', 'not met'),
  ('CCCc1nc(CC)c(C(=O)O)n1Cc1ccc(-c2cc(-c3ccccc3)ccc2-c2noc(=O)[nH]2)cc1', 'met'),
  ('CCCCc1ncc(C(=O)NC2CCC2)n1Cc1ccc(-c2cc(-c3ccccc3)ccc2-c2nn[nH]n2)cc1', 'met'),
  ('CCOc1nc2cccc(C(=O)O)c2n1Cc1ccc(-c2cc(Oc3ccccc3F)ccc2-c2nn[nH]n2)cc1', 'met'),
  ('CCCCc1nc(Cl)c(C(=O)O)n1Cc1ccc(-c2cc(-c3ccccc3)ccc2-c2noc(=O)[nH]2)cc1', 'not met'),
  ('CCCCC(=O)N(Cc1ccc(-c2cc(-c3cc(C)ccn3)ccc2-c2nn[nH]n2)cc1)C1(C(=O)O)CCCCC1', 'met'),
  ('CCCCC(=O)N(Cc1ccc(-c2cc(-c3ccccc3)ccc2-c2nn[nH]n2)cc1)C1(C(=O)O)CCOCC1', 'met'),
  ('CCOc1nc2cccc(C(=O)O)c2n1Cc1ccc(-c2cc(-c3ccc(C(=O)N(C)C)cc3)ccc2-c2noc(=O)[nH]2)cc1', 'met'),
  ('CCc1nc2c(C)cc(C)nc2n1Cc1ccc(-c2cc(Oc3cccc(OC(F)(F)F)c3)ccc2-c2nnn[nH]2)cc1', 'not met'),
  ('CCc1nc2c(C)cc(C)nc2n1Cc1ccc(-c2cc(-c3ccccc3O)ccc2C(=O)O)cc1', 'met'),
  ('CCOc1nc2cccc(C(=O)OC)c2n1Cc1ccc(-c2cc(-c3ccccc3)ccc2-c2noc(=O)[nH]2)cc1', 'met');

The measurements presented in this section are drawn from patent US12037324B2.
